assayedSystem: human CXCR3 (N-delta 4) (Homo sapiens, UniProt P49682)
Construct: CD8 leader (N); Flag tag; expressed in transfected cells; membrane preparation
Sequence (P49682 5-368 limits assumed): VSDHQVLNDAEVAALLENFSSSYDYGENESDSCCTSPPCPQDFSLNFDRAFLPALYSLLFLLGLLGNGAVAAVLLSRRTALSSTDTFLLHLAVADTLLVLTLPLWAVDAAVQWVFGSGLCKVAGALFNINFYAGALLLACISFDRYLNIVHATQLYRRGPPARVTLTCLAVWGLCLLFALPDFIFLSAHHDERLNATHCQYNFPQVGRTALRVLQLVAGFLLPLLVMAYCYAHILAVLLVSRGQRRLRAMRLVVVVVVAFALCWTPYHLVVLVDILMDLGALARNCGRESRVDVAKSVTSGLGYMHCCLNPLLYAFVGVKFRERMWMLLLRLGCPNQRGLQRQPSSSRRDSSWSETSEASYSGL
runDescription: Human CXCR3 (N-delta 4) scintillation proximity assay (SPA), [125I] IP-10 binding to Ba/F3-hCXCR3 membranes
experimentalContext: IC50 rating; [125I] IP-10 displacement, human CXCR3; read-out: IC50
metricName: IC50

Q. Look at this molecule and give its reported IC50. "CC[C@H]1CN(c2ncc(Nc3c(NCCN(C)C)c(=O)c3=O)cc2Cl)CCN1C1CCN([C@H](CO)c2ccc(Cl)cc2)CC1"
A. < 25 nM

Q. What do we get for CC[C@H]1CN(c2ncc(Nc3c(N(C)C)c(=O)c3=O)cc2Cl)CCN1C1CCN(C(CO)c2ccc(Cl)cc2)CC1 (stereo partly drawn) ?
A. < 25 nM

Q. What do we get for "CC[C@H]1CN(c2ncc(NC3=NS(=O)(=O)N=C3NC[C@@H](C)O)cc2Cl)CCN1C1CCN(Cc2ccc(Cl)cc2F)CC1" ?
A. 25 to 100 nM

Q. What do we get for "CC(=O)Nc1ccc(CN2CCC(N3C[C@H](C)N(c4ncc(Nc5c(NCC(F)(F)F)c(=O)c5=O)cc4Cl)C[C@H]3C)CC2)cc1" ?
A. > 100 nM

Q. What do we get for CC[C@H]1CN(c2ncc(N(C)C)cc2Cl)CCN1C1CCN(C(CO)c2ccc(Cl)cc2)CC1 (stereo partly drawn) ?
A. 25 to 100 nM

Q. What do we get for "CC[C@H]1CN(c2ncc(NS(C)(=O)=O)cc2Cl)CCN1C1CCN(Cc2ccc(C)cc2C)CC1" ?
A. < 25 nM
